Attribution: patent US20250163054A1

systemName: UniProt:Q9NYK1
Sequence (Q9NYK1 27-1049): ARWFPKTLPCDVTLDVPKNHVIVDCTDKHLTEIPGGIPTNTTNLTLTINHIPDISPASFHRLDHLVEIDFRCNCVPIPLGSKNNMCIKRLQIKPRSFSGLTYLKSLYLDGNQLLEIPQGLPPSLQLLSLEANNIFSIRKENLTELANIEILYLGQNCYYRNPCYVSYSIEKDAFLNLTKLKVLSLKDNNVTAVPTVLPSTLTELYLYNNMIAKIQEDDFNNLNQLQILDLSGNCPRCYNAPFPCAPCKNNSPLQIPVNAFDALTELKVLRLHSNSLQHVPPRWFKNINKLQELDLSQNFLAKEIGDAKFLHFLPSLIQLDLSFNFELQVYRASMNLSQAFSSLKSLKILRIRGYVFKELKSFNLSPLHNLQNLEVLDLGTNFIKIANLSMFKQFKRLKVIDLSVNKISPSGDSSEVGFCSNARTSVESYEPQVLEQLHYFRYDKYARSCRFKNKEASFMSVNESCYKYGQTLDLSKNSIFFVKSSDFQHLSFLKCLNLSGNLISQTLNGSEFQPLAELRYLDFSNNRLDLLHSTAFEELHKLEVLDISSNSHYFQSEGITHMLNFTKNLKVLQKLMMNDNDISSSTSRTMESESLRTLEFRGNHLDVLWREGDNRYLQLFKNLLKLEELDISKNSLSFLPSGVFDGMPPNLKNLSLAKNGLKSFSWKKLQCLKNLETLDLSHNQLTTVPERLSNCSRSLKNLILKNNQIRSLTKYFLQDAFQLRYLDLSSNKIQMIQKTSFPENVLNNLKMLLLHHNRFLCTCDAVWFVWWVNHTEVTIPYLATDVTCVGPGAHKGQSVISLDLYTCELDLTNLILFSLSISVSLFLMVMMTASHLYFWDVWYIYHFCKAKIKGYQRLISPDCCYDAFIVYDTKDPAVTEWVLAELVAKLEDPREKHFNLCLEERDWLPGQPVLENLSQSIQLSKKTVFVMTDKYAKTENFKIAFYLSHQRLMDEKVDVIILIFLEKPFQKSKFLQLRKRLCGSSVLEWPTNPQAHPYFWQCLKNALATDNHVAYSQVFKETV
methodSummary: TLR7/8/9 Inhibition Reporter Assays (TLR7)
conditionSummary: HEK-Blue cells overexpressing human TLR7, SEAP reporter, stimulated with TLR7 ligand gardiquimod
IC50 vs 3 µM: less than gives true (1); not less than gives false (0).

These recorded examples may help you get a feel for the data.
Cc1nc(-c2ccc(CCN3CCC(N4CCOCC4)CC3)cc2)cc2c1nc(-c1ccc(S(C)(=O)=O)cc1)n2C [Example 53] ... false (0)
Cc1nc(-c2ccc(N3CCN(C(C)C)CC3)cc2)cc2c1nc(-c1ccc(S(C)(=O)=O)cc1)n2C [Example 6] ... false (0)

Find out if reported IC50 for Cc1nc(-c2ccc(N3CCC(N(C)C)CC3)cc2)cc2c1nc(-c1ccc(S(C)(=O)=O)cc1)n2C [Example 4] is less than 3 µM true (1)

Please do the same for COCCN1CC2(C1)CN(c1ccc(-c3cc4c(nc(-c5ccc(OC)c(OC)c5)n4C)c(C)n3)cc1)C2 [Example 101] as well. true (1)

Similarly, Cc1nc(-c2ccc(N3CC4(CCN(CC(C)(C)O)CC4)C3)cc2)cc2c1nc(-c1ccc(S(C)(=O)=O)cc1)n2C [Example 100] ? false (0)

// next record COc1ccc(-c2nc3cnc(-c4ccc(N5CC6(CN(CC(C)C)C6)C5)cc4)cc3n2C2CC2)cc1OC [Example 85] false (0)

Please do the same for Cc1nc(-c2ccc(N3CC4(CCN(CC(C)C)CC4)C3)cc2)cc2c1nc(-c1ccc(S(C)(=O)=O)cc1)n2C [Example 98] as well. true (1)

Also, COc1ccc(-c2nc3c(C)nc(-c4ccc(N5C[C@H]6CN(CC(C)C)C[C@H]6C5)cc4)cc3n2C)cc1OC [Example 65] please. false (0)

Subsequent entry: COc1cc(-c2nc3c(C)nc(-c4ccc(N5CCN(CC6CC6)CC5)cc4)cc3n2C)cn2ncnc12 [Example 11] true (1)

What about this compound? CC(C)N1CC2(CN(c3ccc(-c4cc5c(cn4)nc(-c4ccc(S(C)(=O)=O)cc4)n5C4CC4)cc3)C2)C1 [Example 89] true (1)

Repeat with Cc1nc(-c2ccc(CN3CCC(N(C)C)CC3)cc2)cc2c1nc(-c1ccc(S(C)(=O)=O)cc1)n2C [Example 45] true (1)

// next record COc1ccc(-c2nc3c(C)nc(-c4ccc(N5CCC6(CC5)CN(C5COC5)C6)cc4)cc3n2C)cc1OC [Example 106] false (0)

Here is the next compound: Cc1cc(-c2nc3c(C)nc(-c4ccc(N5CCN(C(C)C)CC5)cc4)cc3n2C)cc(C)n1 [Example 13] true (1)

Consider next the compound COc1cc(-c2nc3c(C)nc(-c4ccc(N5CCN(CC(C)C)CC5)cc4)cc3n2C)cn2ncnc12 [Example 10] in the same way. false (0)

// next record CC(C)CN1CCC(N2CC=C(c3cc4c(nc(-c5ccc(S(C)(=O)=O)cc5)n4C)c(C(F)(F)F)n3)CC2)CC1 [Example 36] false (0)

Ok, now CC(C)N1CCC(N2CCC(c3cc4c(cn3)nc(-c3ccc(S(C)(=O)=O)cc3)n4C)CC2)CC1 [Example 30] false (0)

COc1ccc(-c2nc3cnc(-c4ccc(N5CC6(C5)CN(C(C)C)C6)cc4)cc3n2C2CC2)cc1OC [Example 84] , same question. false (0)

Same again, this time with Cc1nc(-c2ccc(N3CC4(CN(CC(C)(C)O)C4)C3)cc2)cc2c1nc(-c1ccc(S(C)(=O)=O)cc1)n2C [Example 97] false (0)
